System: 475296-252-R-J1-PDC spheroid viability
Test: Anticancer human tumor 475296-252-R-J1-PDC patient-derived rectal carcinoma cell line growth inhibition [PI3K]
Details: second compound 0.01 µM; first compound 0.1 µM; active compounds read low; spheroids with HUVEC and MSC
Quantity measured: viability, T/C (%)
Give bare numbers, in %.

Answered cases to consult:
{"columns": ["Molecule", "Target or system", "viability, T/C (%)"],
 "data": [
  ["Cn1ncc(Cl)c1-c1cc(C(=O)NC(CN)Cc2cccc(F)c2)sc1Cl (centres undefined) + COc1c(OCCCN2CCOCC2)ccc2c3n(c(=NC(=O)c4cnc(N)nc4)nc12)CCN3", "475296-252-R-J1-PDC spheroid viability", 91.5],
  ["CC1(C)CCC(Nc2ncc(C(F)(F)F)c(-c3c[nH]c4c(P(C)(C)=O)c(C#N)ccc34)n2)CN1 (centres undefined) + CC(Nc1ccc2c(c1)OCCn1cc(N3C(=O)OCC3C(F)F)nc1-2)C(N)=O", "475296-252-R-J1-PDC spheroid viability", 81.3],
  ["CC(C)NCC(C(=O)N1CCN(c2ncnc3c2C(C)CC3O)CC1)c1ccc(Cl)cc1 (centres undefined) + COc1c(OCCCN2CCOCC2)ccc2c3n(c(=NC(=O)c4cnc(N)nc4)nc12)CCN3", "475296-252-R-J1-PDC spheroid viability", 99],
  ["C#Cc1c(F)ccc2cc(O)cc(-c3ncc4c(N5CC6CCC(C5)N6)nc(OCC56CCCN5CC(F)C6)nc4c3F)c12 (centres undefined) + COc1c(OCCCN2CCOCC2)ccc2c3n(c(=NC(=O)c4cnc(N)nc4)nc12)CCN3", "475296-252-R-J1-PDC spheroid viability", 90.8]
]}

Each molecule below has a reported value. Please supply its viability, T/C.
1. CC(=O)c1c(C)c2cnc(Nc3ccc(N4CCNCC4)cn3)nc2n(C2CCCC2)c1=O + CC(Nc1ccc2c(c1)OCCn1cc(N3C(=O)OCC3C(F)F)nc1-2)C(N)=O
2. CC1(C)CCC(Nc2ncc(C(F)(F)F)c(-c3c[nH]c4c(P(C)(C)=O)c(C#N)ccc34)n2)CN1 (centres undefined) + COc1c(OCCCN2CCOCC2)ccc2c3n(c(=NC(=O)c4cnc(N)nc4)nc12)CCN3
3. CCN1CCN(Cc2ccc(Nc3ncc(F)c(-c4cc(F)c5nc(C)n(C(C)C)c5c4)n3)nc2)CC1 + COc1c(OCCCN2CCOCC2)ccc2c3n(c(=NC(=O)c4cnc(N)nc4)nc12)CCN3

Completion:
[100, 96, 95.2]

Each molecule below has a reported value. Please supply its viability, T/C.
1. CC(C)n1nc(-c2ccc3oc(N)nc3c2)c2c(N)ncnc21 + COc1c(OCCCN2CCOCC2)ccc2c3n(c(=NC(=O)c4cnc(N)nc4)nc12)CCN3
2. C=CC(=O)N1CCN(c2nc(=O)n(-c3c(C)ccnc3C(C)C)c3nc(-c4c(O)cccc4F)c(F)cc23)C(C)C1 (centres undefined) + CC(Nc1ccc2c(c1)OCCn1cc(N3C(=O)OCC3C(F)F)nc1-2)C(N)=O

Completion:
1: 64.3; 2: 84.9

---

Tested on: 475296-252-R-J1-PDC spheroid viability
Assay: Anticancer human tumor 475296-252-R-J1-PDC cell line growth inhibition [PI3K]; active means viability on the fitted dose curve at most 10% of control; inactive means the rest;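 further: spheroids exposed to agents for seven days before readout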
Conditions: second compound 1 µM; first compound 0.3 µM; spheroids with HUVEC and MSC
Please answer using one outcome listed in YES for active, NO for inactive

{"columns": ["Compound", "Target or system", "Assigned class"],
 "data": [
  ["Cn1cnc2c(F)c(Nc3ccc(Br)cc3Cl)c(C(=O)NOCCO)cc21 + CC(Nc1ncnc2nc[nH]c12)c1cc2cccc(Cl)c2c(=O)n1-c1ccccc1", "475296-252-R-J1-PDC spheroid viability", "NO"],
  ["Cn1cnc2c(F)c(Nc3ccc(Br)cc3Cl)c(C(=O)NOCCO)cc21 + Cc1nc(NC(=O)N2CCCC2C(N)=O)sc1-c1ccnc(C(C)(C)C(F)(F)F)c1", "475296-252-R-J1-PDC spheroid viability", "NO"],
  ["Cn1cnc2c(F)c(Nc3ccc(Br)cc3Cl)c(C(=O)NOCCO)cc21 + COc1c(OCCCN2CCOCC2)ccc2c3n(c(=NC(=O)c4cnc(N)nc4)nc12)CCN3", "475296-252-R-J1-PDC spheroid viability", "YES"]
]}

Prompt: What did this assay record as the result for Cn1cnc2c(F)c(Nc3ccc(Br)cc3Cl)c(C(=O)NOCCO)cc21 + CC(Nc1ccc2c(c1)OCCn1cc(N3C(=O)OCC3C(F)F)nc1-2)C(N)=O ?
Completion: NO
